Source of measurements: ChEMBL document CHEMBL2413073

System: PC-3
Experiment: Cytotoxicity against human PC3 cells after 72 hrs by MTT assay
Format: functional, cell-based
Details: PC-3, 72 h
// values below are reported IC50
// return numeric value only (unit: µM, not printed)

Please review the following examples before continuing.
In [3]: df
Out[3]:
                                        smi  observation_type  unit_of_measurement  measured_value
0  CC(=O)O[C@H]1CC[C@@]2(C)C(=CC[C@@H]3[C@@H]2CC[C@]2(C)C(=C(/C#N)C(N)=O)/C(=C/c4ccccc4F)C[C@@H]32)C1              IC50                   µM            11.4
1  CC(=O)O[C@H]1CC[C@@]2(C)C(=CC[C@@H]3[C@@H]2CC[C@]2(C)C(=C(/C#N)C(N)=O)/C(=C/c4ccc(Cl)cc4)C[C@@H]32)C1              IC50                   µM            11.5
2  CC(=O)O[C@H]1CC[C@@]2(C)C(=CC[C@@H]3[C@@H]2CC[C@]2(C)C(=C(/C#N)C(N)=O)/C(=C/c4ccc(C(C)C)cc4)C[C@@H]32)C1              IC50                   µM            13.5
3  CC(=O)O[C@H]1CC[C@@]2(C)C(=CC[C@@H]3[C@@H]2CC[C@]2(C)C(=C(/C#N)C(N)=O)/C(=C/c4ccccc4)C[C@@H]32)C1              IC50                   µM            12.8
4  CC(=O)O[C@H]1CC[C@@]2(C)C(=CC[C@@H]3[C@@H]2CC[C@]2(C)C(=C(/C#N)C(N)=O)/C(=C/c4ccco4)C[C@@H]32)C1              IC50                   µM            23.4

I have this molecule here, CC(=O)O[C@H]1CC[C@@]2(C)C(=CC[C@@H]3[C@@H]2CC[C@]2(C)C(=C(/C#N)C(N)=O)/C(=C/c4cccs4)C[C@@H]32)C1 , and I need its recorded IC50.
20.4
